Test system: fibroblasts
Assay: Adhesion of fibroblasts to BSA-coupled peptide microarrays (MSA technology)
Assay type: cell-based, human
Details: peptide coupled to bovine serum albumin, incubation two hours, FIG. 3
Square brackets hold non-standard residues; d marks the D form. Ends that are not written are not given here. Orn = NCCC[C@H](N)C(=O)O
measured parameter: adhesion of fibroblasts to the peptide

substance	adhesion of fibroblasts to the peptide
GF-Orn-GER-OH (GF[Orn]GER-OH; N-terminus assumed; SMILES N=C(N)NCCC[C@H](NC(=O)[C@H](CCC(=O)O)NC(=O)CNC(=O)[C@H](CCCN)NC(=O)[C@H](Cc1ccccc1)NC(=O)CN)C(=O)O) [No. 1]	not that of fibroblasts
DVISLYNFKHIY-OH (listed as Homo sapiens) [No. 16]	not that of fibroblasts
DRVPHSRNSIT-OH (listed as Homo sapiens) [No. 20]	not that of fibroblasts
KREDVY-COOH (KREDVY-OH; listed as Homo sapiens) [No. 21-COOH]	not that of fibroblasts

Query string: Query adhesion of fibroblasts to the peptide for GRGDSO-OH (GRGDS[Orn]-OH; N-terminus assumed; SMILES N=C(N)NCCC[C@H](NC(=O)CN)C(=O)NCC(=O)N[C@@H](CC(=O)O)C(=O)N[C@@H](CO)C(=O)N[C@@H](CCCN)C(=O)O; listed as Homo sapiens) [No. 11]
Result string: not that of fibroblasts

Query string: Query adhesion of fibroblasts to the peptide for LAIKNDNLVYVY-OH (listed as Homo sapiens) [No. 15]
Result string: not that of fibroblasts

Query string: Query adhesion of fibroblasts to the peptide for GEFYFDLRLKGDK-OH (listed as Homo sapiens) [No. 5]
Result string: not that of fibroblasts

----------
System: fibroblasts
Assay: Adhesion of fibroblasts to BSA-coupled peptide microarrays (MSA technology)
Type: cell-based, human
Settings: peptide coupled to bovine serum albumin, incubation two hours, FIG. 3
Method: The adhesion of cells to peptides was also measured using the MSA™ technology (see Kuschel et al., 2006) as above in example 1. […] Adherent cells were made visible on the white nitrocellulose film by staining with Coomassie Blue and were evaluated in a motorized photomicroscope: the number of blue cells or the color intensity per spot is measured and transferred to tables for evaluation. […]
Ends that are not written are not given here.
measured parameter: adhesion of fibroblasts to the peptide

substance	measurement
WTPPRAQITGYRLTVGLTRR-OH (listed as Homo sapiens) [No. 30]	not that of fibroblasts
LRE-OH (Leu-Arg-Glu-OH; listed as Homo sapiens) [No. 9]	not that of fibroblasts
KREDVY-OH (listed as Homo sapiens) [No. 21]	not that of fibroblasts
